- assaySummary: qHTS Primary assay for Inhibitors of Plasmodium falciparum Dd2 growth in vitro; also: nearly all actives have a fitted effect of over 65% in size; also: potency is read from the fitted curve at half-maximal effect
- statedConditions: P. falciparum Dd2 growth, SYBR Green, 72 h; series mostly up to 28.9 µM
Out of some 120,000 compounds screened, about 5,300 (4.4%) were called active. About 22% were inconclusive and are not listed. The sample holds actives, similar compounds and a random draw of the others, so the mix is not that of the screen.
measure: Potency

Here is how some compounds turned out for Potency.
> print(dat)
                          chemicalstructure  measure  endpointresult
1  CC1=C[C@@H](CC#N)[C@H](C(C)C)C[C@H]1CC(=O)N1CCN(C)CC1  Potency        inactive
2  COC[C@@H]1CN(S(=O)(=O)c2cccc(F)c2)C[C@H]1c1ccncc1  Potency        inactive
3  CC1=C[C@@H](CN2CCN(CCO)CC2)[C@H](C(C)C)C[C@H]1Cc1nnc(-c2ccc(C)cc2)o1  Potency        inactive
4  CC1=C[C@@H](CNC(=O)COc2ccccc2)[C@H](C(C)C)C[C@H]1CC(=O)NCc1ccccn1  Potency        inactive

Next up:
Data point: CCc1ccc(NC(=O)c2cc(S(=O)(=O)NC3CCCCCC3)ccc2F)cc1 ; Potency = 7.94 µM (active)
